In this section we review reported IC50 values for a set of molecules.
Target: kainate site (non-NMDA receptor)
Test: Kainate site (non-NMDA receptor) binding (London and Coyle)
PROPERTY MEASURED: IC50 (µM)

* O=c1[nH]c2ccc3c(c2[nH]c1=O)CNCC3 | 56
* O=C(c1ccc(Cl)cc1)N1CCc2c([N+](=O)[O-])cc3[nH]c(=O)c(=O)[nH]c3c2C1 | 8.2
* O=c1[nH]c2cc(Br)c3c(c2[nH]c1=O)CN(CCc1ccccc1)CC3 | 9
* CC(C)(C)OC(=O)N1CCC(C(=O)N2CCc3c([N+](=O)[O-])cc4[nH]c(=O)c(=O)[nH]c4c3C2)CC1 | 6.9
* O=c1[nH]c2cc([N+](=O)[O-])c3c(c2[nH]c1=O)CN(Cc1ccc(C(F)(F)F)cc1)CC3 | 34
* CC(C)(C)OC(=O)N1CCC(C(=O)N2CCc3ccc4[nH]c(=O)c(=O)[nH]c4c3C2)CC1 | 65
* O=C(C1CCCCC1)N1CCc2c([N+](=O)[O-])cc3[nH]c(=O)c(=O)[nH]c3c2C1 | 5.87

###

Target: AMPA receptor
Experiment: AMPA receptor binding (Honore et al.)
Structures can show the parent of a compound that is named as a salt.
// NB: equality with 0.8 µM counts as False; only IC50 strictly below is True

- O=c1[nH]c2cc(Br)c3c(c2[nH]c1=O)CCN(CCCc1ccccc1)C3 [Example 54, hydrochloride]: False
- O=C(C1CCCCC1)N1CCc2c([N+](=O)[O-])cc3[nH]c(=O)c(=O)[nH]c3c2C1: True
- O=c1[nH]c2cc([N+](=O)[O-])c3c(c2[nH]c1=O)CNCC3: False
- O=c1[nH]c2cc(Br)c3c(c2[nH]c1=O)CCN(Cc1cccc(C(F)(F)F)c1)C3 [Example 48, hydrochloride]: False
- CC(C)(C)OC(=O)N1CCC(C(=O)N2CCc3ccc4[nH]c(=O)c(=O)[nH]c4c3C2)CC1: False
- O=C(Cc1ccc(Cl)cc1)N1CCc2c([N+](=O)[O-])cc3[nH]c(=O)c(=O)[nH]c3c2C1: False
- O=c1[nH]c2cc(Br)c3c(c2[nH]c1=O)CN(Cc1ccccc1)CC3: False
- O=C(c1ccccc1)N1CCc2c([N+](=O)[O-])cc3[nH]c(=O)c(=O)[nH]c3c2C1: True
- O=C(Cc1ccccc1)N1CCc2c([N+](=O)[O-])cc3[nH]c(=O)c(=O)[nH]c3c2C1: True
- O=c1[nH]c2cc([N+](=O)[O-])c3c(c2[nH]c1=O)CN(Cc1ccc(C(F)(F)F)cc1)CC3: False
- CC(C)(C)OC(=O)N1CCC(C(=O)N2CCc3c([N+](=O)[O-])cc4[nH]c(=O)c(=O)[nH]c4c3C2)CC1: True
- O=c1[nH]c2cc(Br)c3c(c2[nH]c1=O)CN(CCCc1ccccc1)CC3: False
- O=c1[nH]c2cc(Br)c3c(c2[nH]c1=O)CN(CCc1ccccc1)CC3: False
- O=c1[nH]c2ccc3c(c2[nH]c1=O)CCN(Cc1ccc(C(F)(F)F)cc1)C3: False
- O=c1[nH]c2ccc3c(c2[nH]c1=O)CN(Cc1ccc(C(F)(F)F)cc1)CC3: False
- O=C(c1ccc(Cl)cc1)N1CCc2c([N+](=O)[O-])cc3[nH]c(=O)c(=O)[nH]c3c2C1: False
- O=c1[nH]c2ccc3c(c2[nH]c1=O)CNCC3: False
